Origin of the recorded values: PubChem BioAssay (NCATS)

# ASSAY: Primary qHTS for inhibitors of nuclear receptor binding SET domain protein 2 (NSD2) in an RCH-ACV wild type WT cells (2C) (AID 1645877); note: nearly all actives have a fitted effect of over 70% in size
# ASSAY_SETUP: RCH-ACV (leukaemia line) NSD2 WT (2C) viability, CellTiter-Glo, 72 h; series mostly up to 44.9 µM
Inconclusive results are not listed. Activity calls are given as the source filed them. Calls come from the whole dose curve; as a rule, active = well fitted inhibition curve with a large enough effect; inconclusive = small, poorly fitted or top-dose-only effect; inactive = no such curve, though single readings can be large or run the other way.
Mark one answer only. Choices: 1.0 (active), 0.0 (inactive)

query: Test call for this compound, please: `CCCc1nc2c(C)cc(-c3nc4ccccc4n3C)cc2n1Cc1ccc(-c2ccccc2C(=O)O)cc1`
result: 0.0

query: Next: `N[C@@H]1CONC1=O`
result: 0.0

query: Would you kindly repeat that for `CCN(c1ccccc1)c1cc(NC)[n+](C)c(C)n1` ?
result: 0.0

query: Please do the same for `CS(=O)(=O)c1ccc(C(=O)Nc2ccc(Cl)c(-c3ccccn3)c2)c(Cl)c1` as well.
result: 0.0

query: Item: `CC(C)C[C@H](NC(=O)[C@@H](O)[C@H](N)Cc1ccccc1)C(=O)O`
result: 0.0

query: `CCC(C)(C)C(=O)O[C@H]1C[C@@H](C)C=C2C=C[C@H](C)[C@H](CC[C@@H]3C[C@@H](O)CC(=O)O3)[C@H]21` ?
result: 1.0

---

# ASSAY: qHTS of pediatric cancer cell lines to identify multiple opportunities for drug repurposing: Confirmatory screen for NB1643 cells (AID 1347109); note: nearly all actives have a fitted effect of over 45% in size
# ASSAY_SETUP: NB1643 neuroblastoma cell viability; series mostly up to 45.9 µM
Results filed as inconclusive are left out. Active and inactive are the calls of the source. Calls come from the whole dose curve; as a rule, active = well fitted cell-killing curve with a large enough effect; inconclusive = small, poorly fitted or top-dose-only effect, or effect the other way; inactive = no such curve, though single readings can be large or run the other way.
Respond using exactly one of the listed classes: YES for active, NO for inactive

query: Record request — test call for CCC(C)n1ncn(-c2ccc(N3CCN(c4ccc(OC[C@H]5CO[C@](Cn6cncn6)(c6ccc(Cl)cc6Cl)O5)cc4)CC3)cc2)c1=O (some centres not stated)
result: NO

query: // same read-out, input: `NC(N)=NC(=O)c1nc(Cl)c(N)nc1N`
result: NO

query: Let us now turn to `Nc1nc2[nH]cc(CCc3ccc(C(=O)N[C@@H](CCC(=O)O)C(=O)O)cc3)c2c(=O)[nH]1`
result: YES

query: Next record, please: `C[C@]1(c2nc3c(C(N)=O)cccc3[nH]2)CCCN1`
result: NO

query: Also `CO[C@@H]1[C@H](N(C)C(=O)c2ccccc2)C[C@H]2O[C@]1(C)n1c3ccccc3c3c4c(c5c6ccccc6n2c5c31)C(=O)NC4` , if possible.
result: YES

query: Entry `Cc1cn[nH]c1` please
result: NO

query: Cool, now NCCCC(N)(C(=O)O)C(F)F (configuration not stated)
result: NO

query: Ok, now CCN(CC)CCCC(C)Nc1ccnc2cc(Cl)ccc12 (configuration not stated)
result: NO

query: Let us now turn to `Cc1oncc1C(=O)Nc1ccc(C(F)(F)F)cc1`
result: NO

query: Also Cc1c(C)c2c(c(C)c1O)CCC(C)(COc1ccc(CC3SC(=O)NC3=O)cc1)O2 (configuration not stated) ?
result: NO

query: Same read-out for `O=C(c1cc(Cc2n[nH]c(=O)c3ccccc23)ccc1F)N1CCN(C(=O)C2CC2)CC1` ?
result: NO

query: One more compound: `Oc1cccc(-c2nc(N3CCOCC3)c3oc4ncccc4c3n2)c1`
result: YES

---

# ASSAY: Identifying Small Molecule Inhibitors of Pancreatic Cancer Stem Cells (A278, Adherent) (AID 1259361);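 note: viability read after 48 h compound exposure; nearly all actives have a fitted effect of over 35% in size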
# ASSAY_SETUP: series mostly up to 46.1 µM
Inconclusive results are not listed. Active and inactive are the calls of the source. Calls come from the whole dose curve; as a rule, active = well fitted cell-killing curve with a large enough effect; inconclusive = small, poorly fitted or top-dose-only effect; inactive = flat fitted curve, though single readings scatter.
Pick one and only one: true for active, false for inactive

query: Which outcome did this test record for the molecule `CNCc1ccc(-c2[nH]c3cc(F)cc4c3c2CCNC4=O)cc1` ?
result: true

query: Now the molecule `Cc1oncc1C(=O)Nc1ccc(C(F)(F)F)cc1`
result: true

query: Please answer likewise for CCC(C)n1ncn(-c2ccc(N3CCN(c4ccc(OC[C@H]5CO[C@](Cn6cncn6)(c6ccc(Cl)cc6Cl)O5)cc4)CC3)cc2)c1=O (some centres undefined)
result: true

query: Now consider `COCC(=O)NCC=Cc1ccc2ncnc(Nc3ccc(Oc4ccc(C)nc4)c(C)c3)c2c1` and answer again.
result: true

query: Another molecule: `CN(C)c1ccc(Nc2nc(N)n(C(=O)c3c(F)cccc3F)n2)cc1`
result: true

query: Okay, and `COc1c(Cl)cc2c([nH]c3cnccc32)c1NC(=O)c1cccnc1C` ?
result: false

query: Repeat for the following molecule: `Cc1cc2c(C(C)C)c(O)c(O)c(C=O)c2c(O)c1-c1c(C)cc2c(C(C)C)c(O)c(O)c(C=O)c2c1O`
result: true

query: Subsequent entry: `COc1cc2c(cc1OC)CN(CCc1ccc(NC(=O)c3cccc4c(=O)c5cccc(OC)c5[nH]c34)cc1)CC2`
result: true

query: How about this molecule: `COc1ccc(C2=N[C@H](c3ccc(Cl)cc3)[C@H](c3ccc(Cl)cc3)N2C(=O)N2CCNC(=O)C2)c(OC(C)C)c1`
result: true

query: Subsequent entry: `C[C@H](NC(=O)Cc1cc(F)cc(F)c1)C(=O)N[C@@H]1C(=O)N(C)c2ccccc2-c2ccccc21`
result: false

query: Moving on to the next molecule: `Cc1cc(C=c2sc3nc4ccccc4n3c2=O)c(C)n1-c1ccccc1`
result: false

query: Next record, please: `CCC(C)(C)C(=O)O[C@H]1C[C@@H](C)C=C2C=C[C@H](C)[C@H](CC[C@@H]3C[C@@H](O)CC(=O)O3)[C@H]21`
result: true

query: # repeat for `C#Cc1cccc(Nc2ncnc3cc(OCCOC)c(OCCOC)cc23)c1`
result: true

query: Continue with CCC(C)N(C)C(=O)c1cc2ccccc2c(-c2ccccc2Cl)n1 (centres undefined)
result: false

query: Next record, please: `NC(=O)c1ccc(-c2nc(-c3ccc4c(c3)OCO4)c(-c3ccccn3)[nH]2)cc1`
result: false

query: How about `CCN(c1ccccc1)c1cc(NC)[n+](C)c(C)n1` ?
result: false

query: Cool, now `NC(=O)c1ccc(I)c([N+](=O)[O-])c1`
result: false

query: Same again, this time with `Cc1[nH]c(=O)c(C#N)cc1-c1ccc2nccn2c1`
result: false

query: Another molecule to look at: `CS(=O)(=O)c1cccc(CNc2nc(Nc3ccc4c(c3)CCC(=O)N4)ncc2C(F)(F)F)c1`
result: true
